- System: β-glucosidase (SEQ ID NO: 1)
- testDescription: Disaccharide production from glucose by beta-glucosidase with added divalent metal ion
- Type: biochemical, Trichoderma reesei
- testContext: standing period 7 days; versus no ion added

compound: [Mg+2] [Mg^2+, magnesium ion (Mg^2+)]
Increase/decrease rate (%) Total: 15
--
compound: [Cu+2] [Cu^2+, copper ion (Cu^2+)]
Increase/decrease rate (%) Total: 30.1
--
compound: [Zn+2] [Zn^2+, zinc ion (Zn^2+)]
Increase/decrease rate (%) Total: 26.3
--
compound: [Mn+2] [Mn^2+, manganese ion (Mn^2+)]
Increase/decrease rate (%) Total: 24.1

* * *

- Test system: β-glucosidase (SEQ ID NO: 1)
- testDescription: Disaccharide production from glucose by beta-glucosidase with added divalent metal ion
- Format: biochemical, Trichoderma reesei
- testContext: standing period 21 days; versus no ion added

compound: [Mn+2]
system: β-glucosidase (SEQ ID NO: 1)
Increase/decrease rate (%) Total: 11.7%
--
compound: [Zn+2] [Zn^2+, zinc ion (Zn^2+)]
system: β-glucosidase (SEQ ID NO: 1)
Increase/decrease rate (%) Total: 17%
--
compound: [Cu+2]
system: β-glucosidase (SEQ ID NO: 1)
Increase/decrease rate (%) Total: 18.4%
--
compound: [Mg+2]
system: β-glucosidase (SEQ ID NO: 1)
Increase/decrease rate (%) Total: −0.9%

* * *

- System: β-glucosidase (SEQ ID NO: 1)
- testDescription: Disaccharide production from glucose by beta-glucosidase with added divalent metal ion
- Format: biochemical, Trichoderma reesei
- testContext: standing period 7 days; versus no ion added
observationType: Increase/decrease rate (%) Gentiobiose

molecule: [Cu+2]
measured: 22.8
--
molecule: [Zn+2] [Zn^2+, zinc ion (Zn^2+)]
measured: 19.7
--
molecule: [Mg+2]
measured: 10
--
molecule: [Mn+2]
measured: 18.9

* * *

- Test system: β-glucosidase (SEQ ID NO: 1)
- testDescription: Disaccharide production from glucose by beta-glucosidase with added divalent metal ion
- Assay type: biochemical, Trichoderma reesei
- testContext: standing period 21 days; 1 mM ion; 60° C.

molecule: [Mg+2] [Mg^2+, magnesium ion (Mg^2+)]
system: β-glucosidase (SEQ ID NO: 1)
Concentration (g/L) Gentiobiose: 74.6
//
molecule: [Zn+2] [Zn^2+, zinc ion (Zn^2+)]
system: β-glucosidase (SEQ ID NO: 1)
Concentration (g/L) Gentiobiose: 92
//
molecule: [Mn+2] [Mn^2+, manganese ion (Mn^2+)]
system: β-glucosidase (SEQ ID NO: 1)
Concentration (g/L) Gentiobiose: 86.5
//
molecule: [Cu+2] [Cu^2+, copper ion (Cu^2+)]
system: β-glucosidase (SEQ ID NO: 1)
Concentration (g/L) Gentiobiose: 92.4

* * *

- Test system: β-glucosidase (SEQ ID NO: 1)
- testDescription: Disaccharide production from glucose by beta-glucosidase with added divalent metal ion
- Type: biochemical, Trichoderma reesei
- testContext: standing period 14 days; versus no ion added

compound: [Zn+2] [Zn^2+, zinc ion (Zn^2+)]
system: β-glucosidase (SEQ ID NO: 1)
readingUnit: %
Increase/decrease rate (%) Total: 16.8
//
compound: [Mn+2] [Mn^2+, manganese ion (Mn^2+)]
system: β-glucosidase (SEQ ID NO: 1)
readingUnit: %
Increase/decrease rate (%) Total: 13.4
//
compound: [Cu+2] [Cu^2+, copper ion (Cu^2+)]
system: β-glucosidase (SEQ ID NO: 1)
readingUnit: %
Increase/decrease rate (%) Total: 18.9
//
compound: [Mg+2] [Mg^2+, magnesium ion (Mg^2+)]
system: β-glucosidase (SEQ ID NO: 1)
readingUnit: %
Increase/decrease rate (%) Total: 4.2

* * *

Concentration (g/L) Total listing for selected molecules.
- System: β-glucosidase (SEQ ID NO: 1)
- testDescription: Disaccharide production from glucose by beta-glucosidase with added divalent metal ion
- Format: biochemical, Trichoderma reesei
- testContext: standing period 14 days; 1 mM ion; 60° C.; total equals gentiobiose + sophorose
observationType: Concentration (g/L) Total

molecule: [Mg+2] [Mg^2+, magnesium ion (Mg^2+)]
system: β-glucosidase (SEQ ID NO: 1)
measured: 86.8

molecule: [Mn+2] [Mn^2+, manganese ion (Mn^2+)]
system: β-glucosidase (SEQ ID NO: 1)
measured: 94.5

molecule: [Zn+2] [Zn^2+, zinc ion (Zn^2+)]
system: β-glucosidase (SEQ ID NO: 1)
measured: 97.3

molecule: [Cu+2] [Cu^2+, copper ion (Cu^2+)]
system: β-glucosidase (SEQ ID NO: 1)
measured: 99.1

* * *

- Test system: β-glucosidase (SEQ ID NO: 1)
- testDescription: Disaccharide production from glucose by beta-glucosidase with added divalent metal ion
- Format: biochemical, Trichoderma reesei
- testContext: standing period 7 days; 1 mM ion; 60° C.
Concentration (g/L) Cellobiose values for the molecules below.
observationType: Concentration (g/L) Cellobiose

molecule: [Mg+2]
observationType: Concentration (g/L) Cellobiose
measured: 13.1 g/L

molecule: [Cu+2]
observationType: Concentration (g/L) Cellobiose
measured: 15.1 g/L

molecule: [Mn+2]
observationType: Concentration (g/L) Cellobiose
measured: 14.5 g/L

molecule: [Zn+2] [Zn^2+, zinc ion (Zn^2+)]
observationType: Concentration (g/L) Cellobiose
measured: 14.8 g/L

* * *

- System: β-glucosidase (SEQ ID NO: 1)
- testDescription: Disaccharide production from glucose by beta-glucosidase with added divalent metal ion
- Assay type: biochemical, Trichoderma reesei
- testContext: standing period 7 days; versus no ion added

compound: [Zn+2] [Zn^2+, zinc ion (Zn^2+)]
system: β-glucosidase (SEQ ID NO: 1)
Increase/decrease rate (%) Sophorose: 82.8
--
compound: [Mg+2] [Mg^2+, magnesium ion (Mg^2+)]
system: β-glucosidase (SEQ ID NO: 1)
Increase/decrease rate (%) Sophorose: 56.8
--
compound: [Mn+2] [Mn^2+, manganese ion (Mn^2+)]
system: β-glucosidase (SEQ ID NO: 1)
Increase/decrease rate (%) Sophorose: 67.8
--
compound: [Cu+2] [Cu^2+, copper ion (Cu^2+)]
system: β-glucosidase (SEQ ID NO: 1)
Increase/decrease rate (%) Sophorose: 92.2

* * *

Form field: Concentration (g/L) Trehalose (one value per entry).
- Test system: β-glucosidase (SEQ ID NO: 1)
- testDescription: Disaccharide production from glucose by beta-glucosidase with added divalent metal ion
- Type: biochemical, Trichoderma reesei
- testContext: standing period 7 days; 1 mM ion; 60° C.
observationType: Concentration (g/L) Trehalose

compound: [Mg+2]
measured: 21.1 g/L
--
compound: [Cu+2]
measured: 19.4 g/L
--
compound: [Mn+2]
measured: 21.7 g/L
--
compound: [Zn+2] [Zn^2+, zinc ion (Zn^2+)]
measured: 22.2 g/L

* * *

Listed next: entries and their corresponding Increase/decrease rate (%) Gentiobiose.
- System: β-glucosidase (SEQ ID NO: 1)
- testDescription: Disaccharide production from glucose by beta-glucosidase with added divalent metal ion
- Format: biochemical, Trichoderma reesei
- testContext: standing period 14 days; versus no ion added
observationType: Increase/decrease rate (%) Gentiobiose

compound: [Mn+2]
readingUnit: %
measured: 10.5
//
compound: [Cu+2]
readingUnit: %
measured: 16.3
//
compound: [Zn+2] [Zn^2+, zinc ion (Zn^2+)]
readingUnit: %
measured: 14.7
//
compound: [Mg+2]
readingUnit: %
measured: −1.6

* * *

- Tested on: β-glucosidase (SEQ ID NO: 1)
- testDescription: Disaccharide production from glucose by beta-glucosidase with added divalent metal ion
- Format: biochemical, Trichoderma reesei
- testContext: standing period 21 days; versus no ion added
# Increase/decrease rate (%) Gentiobiose per record follows
observationType: Increase/decrease rate (%) Gentiobiose

molecule: [Cu+2]
system: β-glucosidase (SEQ ID NO: 1)
measured: 11.7
--
molecule: [Zn+2] [Zn^2+, zinc ion (Zn^2+)]
system: β-glucosidase (SEQ ID NO: 1)
measured: 11.3
--
molecule: [Mn+2]
system: β-glucosidase (SEQ ID NO: 1)
measured: 4.6
--
molecule: [Mg+2]
system: β-glucosidase (SEQ ID NO: 1)
measured: −9.8

* * *

- Tested on: β-glucosidase (SEQ ID NO: 1)
- testDescription: Disaccharide production from glucose by beta-glucosidase with added divalent metal ion
- Format: biochemical, Trichoderma reesei
- testContext: standing period 14 days; versus no ion added

molecule: [Mn+2]
readingUnit: %
Increase/decrease rate (%) Sophorose: 29.2

molecule: [Zn+2] [Zn^2+, zinc ion (Zn^2+)]
readingUnit: %
Increase/decrease rate (%) Sophorose: 28.4

molecule: [Mg+2]
readingUnit: %
Increase/decrease rate (%) Sophorose: 36.5

molecule: [Cu+2]
readingUnit: %
Increase/decrease rate (%) Sophorose: 33.5

* * *

- Tested on: β-glucosidase (SEQ ID NO: 1)
- testDescription: Disaccharide production from glucose by beta-glucosidase with added divalent metal ion
- Assay type: biochemical, Trichoderma reesei
- testContext: standing period 21 days; 1 mM ion; 60° C.
observationType: Concentration (g/L) Trehalose

compound: [Cu+2] [Cu^2+, copper ion (Cu^2+)]
measured: 13 g/L
//
compound: [Mg+2] [Mg^2+, magnesium ion (Mg^2+)]
measured: 14.8 g/L
//
compound: [Mn+2] [Mn^2+, manganese ion (Mn^2+)]
measured: 14.1 g/L
//
compound: [Zn+2] [Zn^2+, zinc ion (Zn^2+)]
measured: 14.5 g/L
